Entry source: ChEMBL document CHEMBL1144619

# MIC per record follows
# System: Streptococcus pneumoniae
# test summary: Antibacterial activity against Streptococcus pneumoniae SV1
# Assay type: functional
recorded endpoint: MIC (µg/mL)

[
  {
    "molecular string": "COc1c(N2CC[C@@H]([C@H](C)N)C2)ccc2c(=O)c(C(=O)O)cn(C3CC3)c12",
    "observed": 0.015
  },
  {
    "molecular string": "COc1c(N2CC[C@@H]([C@@H](N)CC#N)C2)ccc2c(=O)c(C(=O)O)cn(C3CC3)c12",
    "observed": 0.03
  },
  {
    "molecular string": "Cc1c(N2CC[C@@H]([C@H](C)NCCC#N)C2)c(F)cc2c(=O)c(C(=O)O)cn(C3CC3)c12",
    "observed": 0.008
  },
  {
    "molecular string": "Cc1c(N2CC(C)(CN)C2)c(F)cc2c(=O)c(C(=O)O)cn(C3CC3)c12",
    "observed": 0.06
  },
  {
    "molecular string": "CN[C@@H](C)[C@@H]1CCN(c2c(F)cc3c(=O)c(C(=O)O)cn(C4CC4)c3c2OC)C1",
    "observed": 0.008
  },
  {
    "molecular string": "COc1c(N2CC[C@@H](CNCCC#N)C2)c(F)cc2c(=O)c(C(=O)O)cn(C3CC3)c12",
    "observed": 0.125
  },
  {
    "molecular string": "COc1c(N2CC[C@@H](CNCCC#N)C2)ccc2c(=O)c(C(=O)O)cn(C3CC3)c12",
    "observed": 0.125
  },
  {
    "molecular string": "CCC1(CN)CN(c2c(F)cc3c(=O)c(C(=O)O)cn(C4CC4)c3c2C)C1",
    "observed": 0.06
  },
  {
    "molecular string": "CCC1(CNCCC#N)CN(c2c(F)cc3c(=O)c(C(=O)O)cn(C4CC4)c3c2C)C1",
    "observed": 0.125
  },
  {
    "molecular string": "Cc1c(N2CC(C)(CNCCC#N)C2)c(F)cc2c(=O)c(C(=O)O)cn(C3CC3)c12",
    "observed": 0.125
  }
]

====

# System: Moraxella catarrhalis
# test summary: Antibacterial activity against Moraxella catarrhalis BC-3531
# Assay type: functional
# MIC per record follows

[
  {
    "compound": "O=C(O)c1cn(C2CC2)c2cc(N3CCNCC3)c(F)cc2c1=O",
    "unit symbol": "µg/mL",
    "MIC": 0.03
  },
  {
    "compound": "CN[C@@H](CC#N)[C@@H]1CCN(c2c(F)cc3c(=O)c(C(=O)O)cn4c3c2OCC4C)C1 (stereo not given in full)",
    "unit symbol": "µg/mL",
    "MIC": 0.25
  },
  {
    "compound": "COc1c(N2CC[C@@H]([C@H](C)NCCC#N)C2)c(F)cc2c(=O)c(C(=O)O)cn(C3CC3)c12",
    "unit symbol": "µg/mL",
    "MIC": 0.06
  },
  {
    "compound": "Cc1c(N2CC(C)(CN)C2)c(F)cc2c(=O)c(C(=O)O)cn(C3CC3)c12",
    "unit symbol": "µg/mL",
    "MIC": 0.06
  },
  {
    "compound": "CCC1(CN)CN(c2c(F)cc3c(=O)c(C(=O)O)cn(C4CC4)c3c2C)C1",
    "unit symbol": "µg/mL",
    "MIC": 0.125
  }
]
